Substrate: Cc1cc(=O)oc2cc(O[C@@H]3OC[C@@H](O)[C@H](O)[C@H]3O)ccc12
Assay: galactosyltransferase assay, HPLC-UV
Format: biochemical, Homo sapiens
Details: apparent, fixed 1 mM UDP-Gal, 10 mM MnCl2, 100 mM sodium cacodylate pH 7.0, 37 °C
Excerpt: galactosyltransferase assay, HPLC-UV on hβ4GalT7 (GST-β4GalT7)

>  <protein>
hβ4GalT7 (GST-β4GalT7) (Homo sapiens; H195Q) (protein, truncated soluble form lacking the first 60 N-terminal amino acids (transmembrane domain and part of stem), GST fusion (tag kept), pET-41a(+), E. coli BL21(DE3), glutathione-Sepharose purified) VRGQGQETSGPPRACPPEPPPEHWEEDASWGPHRLAVLVPFRERFEELLVFVPHMRRFLSRKKIRHHIYVLNQVDHFRFNRAALINVGFLESSNSTDYIAMHDVDLLPLNEELDYGFPEAGPFHVASPELHPLYQYKTYVGGILLLSKQHYRLCNGMSNRFWGWGREDDEFYRRIKGAGLQLFRPSGITTGYKTFRHLHDPAWRKRDQKRIAAQKQEQFKVDREGGLNTVKYHVASRTALSVGGAPCTVLNIMLDCDKTATPWCTFS

>  <unit-of-measurement>
M⁻¹ s⁻¹

>  <kcat/Km>
2950

$$$$
>  <protein>
hβ4GalT7 (GST-β4GalT7) (Homo sapiens; H195R) (protein, truncated soluble form lacking the first 60 N-terminal amino acids (transmembrane domain and part of stem), GST fusion (tag kept), pET-41a(+), E. coli BL21(DE3), glutathione-Sepharose purified) VRGQGQETSGPPRACPPEPPPEHWEEDASWGPHRLAVLVPFRERFEELLVFVPHMRRFLSRKKIRHHIYVLNQVDHFRFNRAALINVGFLESSNSTDYIAMHDVDLLPLNEELDYGFPEAGPFHVASPELHPLYRYKTYVGGILLLSKQHYRLCNGMSNRFWGWGREDDEFYRRIKGAGLQLFRPSGITTGYKTFRHLHDPAWRKRDQKRIAAQKQEQFKVDREGGLNTVKYHVASRTALSVGGAPCTVLNIMLDCDKTATPWCTFS

>  <unit-of-measurement>
M⁻¹ s⁻¹

>  <kcat/Km>
4030

$$$$
